Data provenance: paper PMC11374660

- Test system: glucose uptake by wild type yeast cells
- test-details: Zero-trans uptake of radioactive glucose in wild type yeast cells
- Assay type: cell-based, S. cerevisiae
- condition-label: Saccharomyces cerevisiae, radioactive glucose, 10 s, read-out: IC50 for inhibition of 2.5 mM glucose uptake
measure: pIC50
// pIC50 here means minus log10 of the molar concentration (mol/L)

Prompt: Give its pIC50 value. Item: Cc1nc(Sc2nnc3n2CCCCC3)c2c(-c3cccs3)csc2n1
Response: 4.77
